# Tested on: Mus musculus
# protocol-description: Mean survival time calculated for the mice which died during 28 day observation period at the dose of 48 mg/kg/day i.m.
# Assay type: functional
# condition-label: route intramuscular
quantity-measured: MST
Answers are plain numbers.

Give MST for each of the items listed below.
1. C=C(CCC(O)c1ccc(-c2ccccc2)cc1)C1COC2(CCCCC2)OO1 (centres undefined)
2. C=C(CCC(O)c1ccccc1)C1COC2(CCCCC2)OO1 (centres undefined)
3. C=C(CCC(O)c1ccc(Cl)cc1)C1COC2(CCCCC2)OO1 (centres undefined)
4. C=C(CCC(O)c1ccccc1)C1COC2(CCCC2)OO1 (centres undefined)

## Output
1: 10.6; 2: 12.6; 3: 16; 4: 12.6
